This collection of values is drawn from patent US10421754B2.

Quick reference: pIC50 of the listed items.
- Tested on: SK-OV-3
- measurement.description: In vitro cell experiment (MTT), SK-OV-3
- Format: cell-based
- run.parameters: 72 h, human ovarian carcinoma cells (EGFR2 overexpressing)
Interpret pIC50 as the negative base-10 log of the concentration measured in mol/L.

Examples from the recorded data:
compound: COc1cc2c(Nc3ccc(F)c(Cl)c3)ncnc2cc1OCCCCC(N)=O
metric.name: pIC50
reading: 5.57
//
compound: COc1cc2c(Nc3ccc(Br)cc3F)ncnc2cc1OCCCCCC(N)=O
metric.name: pIC50
reading: 5.58
//
compound: COc1cc2c(Nc3ccc(F)c(Cl)c3)ncnc2cc1OCCn1ccnc1
metric.name: pIC50
reading: 5.53
//
compound: COc1cc2c(Nc3ccc(F)c(Cl)c3)ncnc2cc1OCCCN1CCCC1
metric.name: pIC50
reading: 5.88
//
compound: COc1cc2c(Nc3ccc(Br)cc3F)ncnc2cc1OCCCN1CCCCC1 [Compound 45, reference compound]
metric.name: pIC50
reading: 5.30

Record COc1cc2c(Nc3ccc(Br)cc3F)ncnc2cc1OCC1CCN(C)CC1 [Vandetanib, reference compound] . Reported pIC50: 5.45

Record COc1cc2c(Nc3ccc(F)c(Cl)c3)ncnc2cc1OCCCN(C)C . Reported pIC50: 5.69

Record COc1cc2c(Nc3ccc(F)c(Cl)c3)ncnc2cc1OCCCCN(C)C . Reported pIC50: 5.68

Record COc1cc2c(Nc3ccc(Br)cc3F)ncnc2cc1OCCCN(C)C . Reported pIC50: 5.59

Record COc1cc2c(Nc3ccc(Br)cc3F)ncnc2cc1OCCCCN(C)C . Reported pIC50: 5.74
